# target.desc: Histone deacetylase 1 (Homo sapiens, UniProt Q13547)
# Sequence (Q13547 whole entry): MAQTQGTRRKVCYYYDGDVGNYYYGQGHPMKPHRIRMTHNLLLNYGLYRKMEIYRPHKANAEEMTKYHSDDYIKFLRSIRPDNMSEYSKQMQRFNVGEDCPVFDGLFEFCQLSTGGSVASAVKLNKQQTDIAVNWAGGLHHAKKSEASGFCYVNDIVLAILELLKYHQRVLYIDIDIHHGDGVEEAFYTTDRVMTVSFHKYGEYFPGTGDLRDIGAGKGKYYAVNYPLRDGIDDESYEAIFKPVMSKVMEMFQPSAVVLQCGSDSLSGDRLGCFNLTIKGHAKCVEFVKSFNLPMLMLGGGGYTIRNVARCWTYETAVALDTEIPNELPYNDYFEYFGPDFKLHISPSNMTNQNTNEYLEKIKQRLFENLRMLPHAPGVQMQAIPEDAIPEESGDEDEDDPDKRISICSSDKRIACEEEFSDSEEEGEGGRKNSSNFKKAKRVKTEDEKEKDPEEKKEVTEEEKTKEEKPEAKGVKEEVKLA
observed.property: IC50 (nM)
Answer format: numeric, nM implied, no suffix.

IN: Supply IC50 measured with Histone deacetylase 1 (Homo sapiens, UniProt Q13547) for `O=C(CCCCCONC(=O)c1nc(-c2ccc(N3CCCC3)cc2)cs1)NO` .
OUT: 12

====

# target.desc: Histone deacetylase 8 (Homo sapiens)
# Sequence (Q9BY41 whole entry): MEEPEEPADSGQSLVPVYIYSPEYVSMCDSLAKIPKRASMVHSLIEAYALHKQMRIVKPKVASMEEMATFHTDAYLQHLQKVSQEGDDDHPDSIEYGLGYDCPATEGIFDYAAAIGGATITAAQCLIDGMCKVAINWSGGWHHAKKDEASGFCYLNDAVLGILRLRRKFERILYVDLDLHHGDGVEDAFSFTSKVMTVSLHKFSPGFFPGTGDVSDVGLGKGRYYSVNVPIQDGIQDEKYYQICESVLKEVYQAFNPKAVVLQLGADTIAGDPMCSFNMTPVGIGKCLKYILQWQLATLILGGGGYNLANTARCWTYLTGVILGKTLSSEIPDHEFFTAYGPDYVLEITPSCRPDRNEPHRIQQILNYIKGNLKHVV
observed.property: IC50 (µM)
The reply should be a number in µM, with the unit left off.

In [3]: df
Out[3]:
                            smiles_notation  unit_text  numeric_result
0      O=C(CCCCCONC(=O)c1nc(-c2cccs2)cs1)NO         µM            2.51
1  O=C(CCCCCONC(=O)c1nc(-c2cccc(F)c2)cs1)NO         µM            2.32
2    O=C(CCCCCONC(=O)c1nc(-c2ccccc2F)cs1)NO         µM            1.29

IN: Specify reported IC50 for the compound shown: `COc1cccc(-c2csc(C(=O)NOCCCCCC(=O)NO)n2)c1`
OUT: 5.2

IN: Given `O=C(CCCCCONC(=O)c1nc(-c2ccccc2)cs1)NO` , respond with its IC50.
OUT: 4.01

IN: Provide only the value of recorded IC50 for `Cc1ccc(-c2csc(C(=O)NOCCCCCC(=O)NO)n2)cc1`
OUT: 7.01

====

# measurement.protocol: Metabolic stability in human liver microsomes assessed as half life measured upto 60 mins in presence of NADPH regenerating system LC-MS analysis
observed.property: half-life at 1 h (min)
Write it as a number; the unit min goes unstated.

IN: Answer with the recorded half-life at 1 h for the compound listed here: `O=C(CCCCCCC(=O)Nc1ccccc1)NO`
OUT: 35.9

====

Entries annotated with measured pIC50
# System: K562
# measurement.protocol: cells
# Type: functional, cell-based
# experimental.setup: Homo sapiens, K562, 72 h
Entry type: numeric. Quantity: pIC50, the -log10 of concentration in molar units.

Use the examples below as a reference point.
>>> print(df.to_string())
                                   molecule  numeric_result
0  CC(=O)Nc1ccc(C(=O)Nc2ccccc2N)cc1 [TACEDINALINE]            5.27
1  O=C(/C=C/c1cccc(S(=O)(=O)Nc2ccccc2)c1)NO [BELINOSTAT]            6.66

Now for the molecule whose pIC50 we want.
IN: Report pIC50 under test system K562 for O=C(CCCCCCNC(=O)c1cnc(N(c2ccccc2)c2ccccc2)nc1)NO [RICOLINOSTAT] .
OUT: 5.53
